- experimental-target: human MGL from HeLa cells (Homo sapiens (Human), UniProt Q99685)
- Sequence (Q99685 whole entry): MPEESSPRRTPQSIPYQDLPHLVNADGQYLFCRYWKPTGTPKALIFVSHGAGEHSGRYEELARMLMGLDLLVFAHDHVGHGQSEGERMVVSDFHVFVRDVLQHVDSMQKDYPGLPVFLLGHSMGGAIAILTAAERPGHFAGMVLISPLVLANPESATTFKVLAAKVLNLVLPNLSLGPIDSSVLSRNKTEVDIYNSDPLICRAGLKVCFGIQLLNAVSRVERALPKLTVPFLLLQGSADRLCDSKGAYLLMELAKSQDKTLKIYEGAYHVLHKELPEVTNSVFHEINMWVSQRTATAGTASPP
- test-method-notes: MGL in vitro activity assay: cleavage of [glycerol-1,3-3H]-oleyl glycerol, activated carbon filtration
- measurement-conditions: 300 nM [Glycerol-1,3-3H]-oleyl glycerol, endogenously expressed MGL from HeLa cells, one hour incubation
readout-name: pIC50
In simple prose, pIC50 is minus the logarithm base ten of a concentration in moles per litre.

Please review the entries below; each comes with its answer.
C[C@H]1c2nn(C)c(-c3cc(C(F)(F)F)nn3C)c2CCN1C(=O)c1nn(C)c2ccccc12 :: 7.43
Cc1cccc(C(=O)N2[C@@H]3CCC[C@H]2c2nn(C)c(-c4cc(C(F)(F)F)nn4C)c2C3)c1 (stereo in doubt) :: 7.17
C[C@H]1c2nn(C)c(-c3cc(C(F)(F)F)nn3C)c2CCN1C(=O)c1cnc2cc(F)cc(F)c2c1 :: 6.44

Challenge: Any idea what pIC50 was measured for Cc1ccc(C(=O)N2[C@@H]3CCC[C@H]2c2nn(C)c(-c4cc(C)nn4C)c2C3)c(F)c1 (stereo in doubt) ?
Response given: 5.95

----------
Measured log10 IC50 by item
- experimental-target: human MGL from HeLa cells (Homo sapiens (Human))
- test-method-notes: MGL in vitro activity assay: cleavage of [glycerol-1,3-3H]-oleyl glycerol, activated carbon filtration
- measurement-conditions: 300 nM [Glycerol-1,3-3H]-oleyl glycerol, endogenously expressed MGL from HeLa cells, one hour incubation
Recorded IC50 (log10, nM)

# example entries with known answers
Cn1nc(C(F)(F)F)cc1-c1c2c(nn1C)[C@@H]1CCC[C@H](C2)N1C(=O)c1n[nH]c2ncc(F)cc12 :: 2.00
Cc1cccc2ncc(C(=O)N3CCc4c(nn(C)c4-c4cc(C(F)(F)F)nn4C)[C@@H]3C)n12 :: 0.95
COc1ccc(C(=O)N2CCc3c(nn(C)c3-c3cc(C(F)(F)F)nn3C)[C@@H]2C)c(Cl)c1 :: 2.00
Cc1ccc(C(=O)N2CCc3c(nn(C)c3-c3cc(C(F)(F)F)nn3C)[C@@H]2C)cc1C :: 1.52
Cn1nc(C(F)(F)F)cc1-c1c2c(nn1C)[C@@H]1CCC[C@H](C2)N1C(=O)c1nn(C)c2ncccc12 :: 1.81

Challenge: Bench note: what log10 IC50 did COc1ccc(C(=O)N2CCc3c(nn(C)c3-c3cc(C(F)(F)F)nn3C)[C@@H]2C)c(C)c1 show?
Response given: 2.36

Challenge: For the compound C[C@H]1c2nn(C)c(-c3cnn(C(F)F)c3)c2CCN1C(=O)c1ccc2ncccc2c1 , what log10 IC50 is on record?
Response given: 1.95

Challenge: For the compound shown here, C[C@H]1c2nn(C)c(-c3cc(C(F)(F)F)nn3C)c2CCN1C(=O)c1nccc2ccccc12 , give the reported log10 IC50.
Response given: 1.28

----------
- experimental-target: human MGL from HeLa cells (Homo sapiens (Human), UniProt Q99685)
- test-method-notes: MGL in vitro activity assay: cleavage of [glycerol-1,3-3H]-oleyl glycerol, activated carbon filtration
- measurement-conditions: 300 nM [Glycerol-1,3-3H]-oleyl glycerol, endogenously expressed MGL from HeLa cells, one hour incubation
readout-name: IC50 (nM)
Write the value in nM as a bare number.

Cc1cc(C(=O)N2CCc3c(nn(C)c3-c3cc(C(F)(F)F)n(C)n3)[C@@H]2C)cc(-n2nccn2)c1 :: 23
Cc1ccc2cc(C(=O)N3CCc4c(nn(C)c4-c4cc(C(F)(F)F)nn4C)[C@@H]3C)c(C)cc2n1 :: 1210
COc1cccc(C(=O)N2CCc3c(nn(C)c3-c3c(C)cnn3C)[C@@H]2C)c1C :: 10000
Cc1cc(C)c2cc(C(=O)N3CCc4c(nn(C)c4-c4cc(C(F)(F)F)nn4C)[C@@H]3C)ccc2n1 :: 39
Cc1cc(C(=O)N2CCc3c(nn(C)c3-c3cc(C(F)(F)F)nn3C)[C@@H]2C)cc2scnc12 :: 22
C[C@H]1c2nn(C)c(-c3cc(C(F)(F)F)nn3C)c2CCN1C(=O)c1cccc(N2CC3(COC3)C2)c1Cl :: 20

Challenge: Item: Cc1ccc2c(C(=O)N3CCc4c(nn(C)c4-c4cc(C(F)(F)F)nn4C)[C@@H]3C)cccc2n1 Test system: human MGL from HeLa cells (Homo sapiens (Human), UniProt Q99685) Read-out: IC50 Value: ?
Response given: 35
